Test system: redroot pigweed
Assay: Upland foliar application test by mixed formulations, concentration gradient (Test 8)
Format: in vivo
Conditions: Amaranthus retroflexus, 960 h, applied alone, 2 g/a, 40th day, read-out: Herbicidal effects Redrood pigweed Ea
This listing pairs compounds with measured pest or weed control at 200 g/ha.
Dear colleague, please return just the value in %, with no unit written.

# example entries with known answers
# compound, unit_descriptor, pest or weed control at 200 g/ha
rows = [
    ("CC(C)c1ccc(NC(=O)N(C)C)cc1", "%", 10),
    ("COc1cc(OC)nc(Oc2ccccc2C=NOCC=Cc2ccccc2C)n1", "%", 30),
    ("CC(C)N1C(=O)c2ccccc2NS1(=O)=O", "%", 30),
    ("C#CCON=Cc1ccccc1Oc1nc(OC)cc(OC)n1", "%", 40),
    ("CCCC(C)C(=O)Nc1ccc(C(C)C)c(Cl)c1 (stereo not shown)", "%", 30),
    ("COc1cc(OC)nc(Oc2ccccc2C=NOCC=Cc2ccccc2)n1", "%", 30),
]

Next, consider the following compound.
Entry COc1cc(OC)nc(Oc2ccccc2C=NOCC=C(C)C)n1 : reported pest or weed control at 200 g/ha = ?
50

---

Attribute: Inhibitory activity (%) Pea
Tested on: ALS (acetolactate syntase)
Assay: ALS enzyme assay (Test 1)
Type: biochemical, pea
Conditions: 1,000 ppm (0.5 mg/0.5 ml)
API: value field is a number in %; no unit string.

The following compounds have reported results that may help.
# compound, Inhibitory activity (%) Pea
rows = [
    ("COc1cc(OC)nc(Oc2ccccc2C=NOCC=Cc2cccc(C)c2)n1 [Compound No. 34]", 0),
    ("COc1cc(OC)nc(Oc2ccccc2C=NOCc2ccc(Cl)cc2Cl)n1 [Compound No. 17]", 0),
]

Requested read-out: Inhibitory activity (%) Pea. Entry: COc1cc(OC)nc(Oc2ccccc2C=NOCC=Cc2ccccc2Br)n1 [compound 40]
0

Now this one: COc1cc(OC)nc(Oc2ccccc2C=NOCC=Cc2ccc(F)cc2)n1 [compound 29]
11

Let us now turn to COc1cc(OC)nc(Oc2ccccc2C=NOCC=Cc2ccc(Cl)cc2Cl)n1 [compound 30]
6

Same for COc1cc(OC)nc(Oc2ccccc2C=NOCc2ccc(Cl)c(Cl)c2)n1 [compound 18]
0

---

Known Herbicidal effects Green foxtail of a selection of compounds
Test system: green foxtail
Test: Upland soil application test (Test 2)
Type: in vivo
Details: 30 g ai/a, soil spray before emergence, 30 days later

Before answering, review these 3 worked examples.
# compound, observed_result
records = [
    ("COc1cc(OC)nc(Oc2ccccc2C=NOCC=Cc2ccc(C(F)(F)F)cc2)n1 [compound 35]", "5 (0-5 (Death))"),
    ("C#CCON=Cc1ccccc1Oc1nc(OC)cc(OC)n1 [Compound No. 13]", "5 (0-5 (Death))"),
    ("COc1cc(OC)nc(Oc2ccccc2C=NOCC=Cc2ccccc2C(F)(F)F)n1 [compound 32]", "5 (0-5 (Death))"),
]

Query (compound): COc1cc(OC)nc(Oc2ccccc2C=NOCC#Cc2ccccc2)n1 [compound 42] ; field requested: Herbicidal effects Green foxtail
5 (0-5 (Death))

Further, for COc1cc(OC)nc(Oc2ccccc2C=NOCc2ccc(C)cc2)n1 [compound 19] ?
4 (6-10 (Severe damages))

---

Test system: barnyardgrass
Assay: Upland foliar application test by mixed formulations (Test 7)
Type: in vivo
Details: Echinochloa crus-galli, 720 h, applied alone, 1 kg/ha, 30th day, read-out: Herbicidal effects (%) Barnyardgrass Ea
Each entry gets Not met if its pest or weed control at 1000 g/ha stays under 50%, and Met if its pest or weed control at 1000 g/ha is 50% or above.

Sample answers from the record:
# compound, class_assignment
measured = [
    ("CC#CCON=Cc1ccccc1Oc1nc(OC)cc(OC)n1 [compound 10]", "Not met"),
    ("COc1cc(OC)nc(Oc2ccccc2C=NOC2CCCCC2)n1 [Compound No. 3]", "Not met"),
    ("C#CCON=Cc1ccccc1Oc1nc(OC)cc(OC)n1 [Compound No. 13]", "Met"),
]

API: above_or_equal(metric=pest or weed control at 1000 g/ha, cutoff=50%) for item COc1cc(OC)nc(Oc2ccccc2C=NOCC=CCl)n1 [compound 11]
Not met

---

System: soybean
Assay: Upland soil application test (Test 2), crop injury
Format: in vivo
Details: 30 g ai/a, soil spray before emergence, 30 days later
Entries and their Injury Soybean

Reference set, count: 2
# molecule, Injury Soybean
rows = [
    ("C#CCON=Cc1ccccc1Oc1nc(OC)cc(OC)n1", "0 (91-100 (No damages))"),
    ("COc1cc(OC)nc(Oc2ccccc2C=NOCC=Cc2ccc(Cl)cc2Cl)n1", "0 (91-100 (No damages))"),
]

Entry COc1cc(OC)nc(Oc2ccccc2C=NOCC=Cc2c(F)cccc2F)n1 , system soybean: what Injury Soybean was measured?
0 (91-100 (No damages))

Now consider COc1cc(OC)nc(Oc2ccccc2C=O)n1 [B, reference compound] and answer again.
5 (0-5 (Death))

What do you have for COc1cc(OC)nc(Oc2ccccc2C=NOC2CCCCC2)n1 ?
0 (91-100 (No damages))

---

Tested on: barnyardgrass
Test: Upland foliar application test by mixed formulations (Test 7)
Type: in vivo
Conditions: Echinochloa crus-galli, 720 h, applied alone, 0.3 kg/ha, 30th day, read-out: Herbicidal effects (%) Barnyardgrass Ea
Assign True whenever pest or weed control at 300 g/ha does not fall below 40%; assign False whenever it does.

Threshold query (pest or weed control at 300 g/ha >= 40%) on COc1cc(OC)nc(Oc2ccccc2C=NOCC=Cc2ccc(Cl)cc2)n1 [Compound No. 28]
True

Next entry: COc1cc(OC)nc(Oc2ccccc2C=NOCC=Cc2cccc(C)c2)n1 [Compound No. 34]
False

Also C=C(Cl)CON=Cc1ccccc1Oc1nc(OC)cc(OC)n1 [Compound No. 14] , if possible.
True

Consider next the compound COc1cc(OC)nc(Oc2ccccc2C=NOCC=C(C)C)n1 [Compound No. 7] in the same way.
False

Could you do the same for COc1cc(OC)nc(Oc2ccccc2C=NOCC=Cc2ccccc2C)n1 [Compound No. 39] , please?
True

Quick one: COc1cc(OC)nc(Oc2ccccc2C=NOCc2cccc(C)c2)n1 [compound 20]
False

Next entry: COc1cc(OC)nc(Oc2ccccc2C=NOCC=Cc2ccccc2)n1 [Compound No. 9]
True

Let us now turn to O=C(O)c1cc(Oc2ccc(C(F)(F)F)cc2Cl)ccc1[N+](=O)[O-] [blazer, reference compound]
True

---

System: rice
Test: Treatment of soil under submerged condition, pre-emergence (Test 4), injury
Type: in vivo
Conditions: 30 g ai/a granule, 30 days later
attribute_measured: Injury Rice

Example entries begin here.
# compound, assay_target, Injury Rice
data = [
    ("COc1cc(OC)nc(Oc2ccccc2C=NOCC=Cc2c(F)cccc2F)n1", "rice", "0 (91-100 (No damages))"),
    ("COc1cc(OC)nc(Oc2ccccc2C=NOCC=Cc2ccc(F)cc2)n1", "rice", "0 (91-100 (No damages))"),
    ("CCCC=CCON=Cc1ccccc1Oc1nc(OC)cc(OC)n1", "rice", "1 (71-90 (Slight damages))"),
    ("COc1cc(OC)nc(Oc2ccccc2C=NOC(C)c2ccccc2)n1 (centres unmarked)", "rice", "0 (91-100 (No damages))"),
    ("C=CCON=Cc1ccccc1Oc1nc(OC)cc(OC)n1", "rice", "0 (91-100 (No damages))"),
    ("COc1cc(OC)nc(Oc2ccccc2C=NOCC=C(C)Cl)n1", "rice", "1 (71-90 (Slight damages))"),
]

# next compound below
Request: Injury Rice, test system rice, entry COc1cc(OC)nc(Oc2ccccc2C=NOCC=C(C)C)n1
1 (71-90 (Slight damages))

---

Known Injury Rice of a selection of molecules
Test system: rice
Test: Treatment of soil under submerged condition, post-emergence (Test 5), injury
Assay type: in vivo
Details: 30 g ai/a granule, 30 days later

# annotated cases, reported Injury Rice shown
# molecule, Injury Rice
measured = [
    ("COc1cc(OC)nc(Oc2ccccc2C=O)n1 [B, reference compound]", "5 (0-5 (Death))"),
    ("COc1cc(OC)nc(Oc2ccccc2C=NO)n1", "1 (71-90 (Slight damages))"),
    ("COc1cc(OC)nc(Oc2ccccc2C=NOC(C)c2ccccc2)n1 (stereo not shown)", "0 (91-100 (No damages))"),
    ("C#CCON=Cc1ccccc1Oc1nc(OC)cc(OC)n1", "0 (91-100 (No damages))"),
]

Lookup: Injury Rice / rice / COc1cc(OC)nc(Oc2ccccc2C=NOCC=Cc2ccccc2C(F)(F)F)n1
1 (71-90 (Slight damages))

Proceed to COc1cc(OC)nc(Oc2ccccc2C=NOCc2ccccc2Cl)n1
0 (91-100 (No damages))

Okay, and COc1cc(OC)nc(Oc2ccccc2C=NOCc2ccccc2)n1 ?
1 (71-90 (Slight damages))
